Biological target: Shh-N in conditioned medium (human, UniProt Q15465 24-197, N-terminal palmitoyl modification; lacks the C-terminal cholesterol moiety)
Assay: cell-based or functional assay
% Inhibition of Gli1 reporter, Conditioned Media N = 2, 20 µg/ml overview
Your answer should be a plain number; it is taken to be in %.

Please review the entries below; each comes with its answer.
{"Binder": "1A12 (antibody, V domains shown, fully human XenoMouse hybridoma antibody; tested as hybridoma supernatant and as purified antibody; also called MAb 1A12) VH: QVYLVESGGGVVQPGRSLRLSCAASGFTFSSYGMHWVRQAPGKGLEWVAVIWYDGSNEYYADSVKGRFTISRDNSKNTLYLQMNSLRAEDTAVYYCARDLYYYGSGSPFDYWGQGTLVTVSS VL: EIVMTQSPATLSVSPGERATLSCRASQSVSSNLAWYQQKPGQAPRLLIFGVSIRATGIPARFSGSGSGTEFTLTISSLQSEDFAVYYCQQYNDWPRPGFGGGTKVEIK", "Measured value": 57}
{"Binder": "1G12 (antibody, V domains shown, fully human XenoMouse hybridoma antibody; tested as hybridoma supernatant and as purified antibody; also called MAb 1G12) VH: QVQLVESGGGVVQPGRSLRLSCAASGFTFSTYGMHWVRQAPGKGLEWVAVIWYDGSNKYYADSVNGRFTISRDNSKNTLYLQMNSLRGEDTAVYYCARDLYYYGSGSPFDYWGQGTLVTVSS VL: EIVMTQSPATLSVSPGERVTLSCRASQSVSSNLAWYQQKPGQAPRLLIYGVSIRATGIPARFSGSGSGTEFTLTISSLQSEDFAVYYCQQYDNWPRPGFGGGTKVEIK", "Measured value": 44}

Query block: Which % Inhibition of Gli1 reporter, Conditioned Media N = 2, 20 µg/ml value is on record for 1C8 (antibody, V domains shown, fully human XenoMouse hybridoma antibody; tested as hybridoma supernatant and as purified antibody; also called MAb 1C8) VH: EVQLVESGGGLIQPGGSLRLSCAVSGFTVSSNCMNWVRQAPGKGLEWVSVIYSGGKTAYADSVKGRFTISRDNSKNTLCLQMNSLRAEDTAVYYCARDSSMVVGLGYFDLWGRGTLVTVSS VL: SYELTQPPSVSVSPGLTASITCSGDKLGYKYASWYQQKPGQSPVLVIYQDIKRPSGIPERFSGSNSGNTATLTISGTQAMDEADYYCQAWDSSTVVFGGGTKLTVL ?
Result block: 8
